Source of measurements: PubChem BioAssay (NCATS)

- System: CP297
- assay_method_text: qHTS profiling for inhibitors of Plasmodium falciparum proliferation (AID 504749); further: nearly all actives have a fitted effect of over 60% in size
- conditions: P. falciparum in erythrocytes, SYBR Green DNA, 72 h; series mostly up to 28.7 µM
Results filed as inconclusive are left out. The source made the active and inactive calls. The call rests on the fitted dose curve; in most records, active means well fitted inhibition curve with a large enough effect; inconclusive means small, poorly fitted or top-dose-only effect; inactive means flat fitted curve, though single readings scatter.
Respond with a class label; see active, inactive

Test call, this compound: CN(Cc1ccc(C(C)(C)C)cc1)Cc1cccc2ccccc12
inactive

Test call, this compound: N/C(=N\N=C\c1ccc(Cl)cc1)N/N=C/c1ccc(Cl)cc1
inactive

Test call, this compound: COc1ccc(C(=O)c2ccccc2O)c(O)c1
inactive

Test call, this compound: CC(C)(C)NC[C@H](O)COc1cccc2c1CCCC2=O
inactive

Test call, this compound: Cn1c(=O)c2[nH]c(Br)nc2n(C)c1=O
inactive

Test call, this compound: Cc1ccccc1OCC(O)CO (configuration not stated)
inactive

Test call, this compound: CCC1Nc2cc(Cl)c(S(N)(=O)=O)cc2S(=O)(=O)N1 (configuration not stated)
inactive

Test call, this compound: O=[N+]([O-])c1cccc(S(=O)(=O)NCCNS(=O)(=O)c2cccc([N+](=O)[O-])c2)c1
inactive

Test call, this compound: CC(C)(C)CC(C)(C)c1ccc(O)c(-n2nc3ccccc3n2)c1
inactive

Test call, this compound: CCCN(CCc1cccs1)[C@H]1CCc2c(O)cccc2C1
active

Test call, this compound: OC1C(O)C(O)C(O)C(O)C1O (configuration not stated)
inactive

Test call, this compound: O=C1C(CCS(=O)c2ccccc2)C(=O)N(c2ccccc2)N1c1ccccc1 (configuration not stated)
inactive

Test call, this compound: CCc1oc2ccccc2c1C(=O)c1cc(I)c(O)c(I)c1
inactive

Test call, this compound: NS(=O)(=O)c1cc(C(=O)O)cc(N2CCCC2)c1Oc1ccccc1
inactive

Test call, this compound: OCc1ccccn1
inactive

Test call, this compound: C[C@@H](O)[C@H]1C(=O)N2C(C(=O)O)=C(S[C@@H]3CN[C@H](CNS(N)(=O)=O)C3)[C@H](C)[C@H]12
inactive

Test call, this compound: c1ccc(-c2nc[nH]c2-c2ccccc2)cc1
inactive

---

- Tested on: ICS
- assay_method_text: qHTS profiling for inhibitors of Plasmodium falciparum proliferation (AID 504749); further: nearly all actives have a fitted effect of over 60% in size
- conditions: P. falciparum in erythrocytes, SYBR Green DNA, 72 h; series mostly up to 28.7 µM
Records with an inconclusive call do not appear. Active and inactive are the calls of the source. Calls come from the whole dose curve; as a rule, active = well fitted inhibition curve with a large enough effect; inconclusive = small, poorly fitted or top-dose-only effect; inactive = flat fitted curve, though single readings scatter.
Respond with a class label; see class 1 (active), class 0 (inactive)

Test call, this compound: Cc1cccc(C)c1NC(=O)CN1CCCC1
class 0

Test call, this compound: COc1ccc(/C=N/NC(=O)c2ccncc2)cc1OC
class 0

Test call, this compound: NC(=O)n1c(O)c(C(=O)c2cccs2)c2cc(Cl)ccc21
class 0

Test call, this compound: COc1ccc(C(=O)c2ccccc2)c(O)c1
class 1

Test call, this compound: O=C(O)C(Cc1cc(I)c(O)c(I)c1)c1ccccc1 (centres undefined)
class 0

Test call, this compound: COc1ccc(-c2cc(C(F)F)nn2-c2ccc(S(N)(=O)=O)cc2)cc1F
class 0

Test call, this compound: CCOc1ccccc1C(N)=O
class 0

Test call, this compound: Nc1ccc(S(=O)(=O)NCc2ccccc2)cc1
class 0

Test call, this compound: CCOc1ccccc1OCCN[C@H](C)Cc1ccc(OC)c(S(N)(=O)=O)c1
class 0
